test: Plasma pharmacokinetics after a single dose of liquid or solid oat product (compartmental PK model); assay type: in vivo, humans; conditions: both sexes, oral, 62 g of oat flakes; solid oat product (62 g oat flakes), single dose, human plasma, derived from PK model
measured_property: Tmax (h)

Examples from the recorded data:
compound="CC1OC(OC2C(OC3CCC4(C)C(=CCC5C4CCC4(C)C5CC5OC6(CCC(C)(COC7OC(CO)C(O)C(O)C7O)O6)C(C)C54)C3)OC(CO)C(OC3OC(CO)C(O)C(O)C3O)C2O)C(O)C(O)C1O (stereo not shown) [AVE A, Avenacoside A]" measured_property=Tmax measurement_unit=h number=1.78
compound="COc1cc(/C=C/C=C/C(=O)Nc2ccc(O)cc2C(=O)O)ccc1O [AVA 2fd]" measured_property=Tmax measurement_unit=h number=1.53
compound="O=C(/C=C/c1ccc(O)cc1)Nc1ccc(O)cc1C(=O)O [AVA 2p]" measured_property=Tmax measurement_unit=h number=1.91
compound="O=C(/C=C/c1ccc(O)c(O)c1)Nc1ccc(O)cc1C(=O)O [AVA 2c]" measured_property=Tmax measurement_unit=h number=1.37
compound="CC1OC(OC2C(OC3CCC4(C)C(=CCC5C4CCC4(C)C5CC5OC6(CCC(C)(COC7OC(CO)C(O)C(O)C7O)O6)C(C)C54)C3)OC(CO)C(OC3OC(CO)C(O)C(OC4OC(CO)C(O)C(O)C4O)C3O)C2O)C(O)C(O)C1O (stereo not shown) [AVE B, Avenacoside B]" measured_property=Tmax measurement_unit=h number=3.29

a: COc1cc(/C=C/C(=O)Nc2ccc(O)cc2C(=O)O)ccc1O [AVA 2f]
b: O=C(/C=C/C=C/c1ccc(O)cc1)Nc1ccc(O)cc1C(=O)O [AVA 2pd]
**Q:** # query: argmin of Tmax over a and b Please indicate the selected item by its label.
**A:** a

---

test: Plasma pharmacokinetics after a single dose of liquid or solid oat product (compartmental PK model); format: in vivo, humans; conditions: both sexes, human, plasma, oral, 196 mL of oat drink; liquid, single dose
measured_property: half-life (h)

Example entries begin here.
compound=COc1cc(/C=C/C=C/C(=O)Nc2ccc(O)cc2C(=O)O)ccc1O number=1.3
compound=O=C(/C=C/c1ccc(O)cc1)Nc1ccc(O)cc1C(=O)O number=1.3
compound=O=C(/C=C/C=C/c1ccc(O)cc1)Nc1ccc(O)cc1C(=O)O number=2.5
compound="CC1OC(OC2C(OC3CCC4(C)C(=CCC5C4CCC4(C)C5CC5OC6(CCC(C)(COC7OC(CO)C(O)C(O)C7O)O6)C(C)C54)C3)OC(CO)C(OC3OC(CO)C(O)C(OC4OC(CO)C(O)C(O)C4O)C3O)C2O)C(O)C(O)C1O (stereo not shown) [AVE B, Avenacoside B]" number=2.5

P: COc1cc(/C=C/C(=O)Nc2ccc(O)cc2C(=O)O)ccc1O
Q: O=C(/C=C/c1ccc(O)c(O)c1)Nc1ccc(O)cc1C(=O)O
**Q:** Lower value for measured half-life? Options: P , Q Answer by quoting the chosen item's label.
**A:** Q

---

Listed here: items and their measured ke, population estimate (RSE%).
assay: Plasma pharmacokinetics after a single dose of liquid or solid oat product (compartmental PK model); type: in vivo, humans; details: solid, Table S1 compartmental model

Worked examples, 5 compounds total:
compound="CC1OC(OC2C(OC3CCC4(C)C(=CCC5C4CCC4(C)C5CC5OC6(CCC(C)(COC7OC(CO)C(O)C(O)C7O)O6)C(C)C54)C3)OC(CO)C(OC3OC(CO)C(O)C(O)C3O)C2O)C(O)C(O)C1O (stereo not drawn) [AVE A, Avenacoside A]" measured_property="ke, population estimate (RSE%)" result="0.22 (6) 1/h"
compound=O=C(/C=C/c1ccc(O)c(O)c1)Nc1ccc(O)cc1C(=O)O measured_property="ke, population estimate (RSE%)" result="0.31 (17) 1/h"
compound=COc1cc(/C=C/C=C/C(=O)Nc2ccc(O)cc2C(=O)O)ccc1O measured_property="ke, population estimate (RSE%)" result="0.42 (17) 1/h"
compound="CC1OC(OC2C(OC3CCC4(C)C(=CCC5C4CCC4(C)C5CC5OC6(CCC(C)(COC7OC(CO)C(O)C(O)C7O)O6)C(C)C54)C3)OC(CO)C(OC3OC(CO)C(O)C(OC4OC(CO)C(O)C(O)C4O)C3O)C2O)C(O)C(O)C1O (stereo not drawn) [AVE B, Avenacoside B]" measured_property="ke, population estimate (RSE%)" result="0.19 (20) 1/h"
compound=O=C(/C=C/C=C/c1ccc(O)cc1)Nc1ccc(O)cc1C(=O)O measured_property="ke, population estimate (RSE%)" result="0.27 (17) 1/h"

Now for a further compound.
**Q:** State its ke, population estimate (RSE%) for this compound: `O=C(/C=C/c1ccc(O)cc1)Nc1ccc(O)cc1C(=O)O`
**A:** 0.44 (17) 1/h

---

assay: Plasma pharmacokinetics after a single dose of liquid or solid oat product (compartmental PK model); format: in vivo, humans; conditions: solid, Table S1 compartmental model
measured_property: ka, population estimate (RSE%)

A selection of reference data follows.
compound=COc1cc(/C=C/C(=O)Nc2ccc(O)cc2C(=O)O)ccc1O measured_property="ka, population estimate (RSE%)" result="3.8 (26) 1/h"
compound=COc1cc(/C=C/C=C/C(=O)Nc2ccc(O)cc2C(=O)O)ccc1O measured_property="ka, population estimate (RSE%)" result="2.2 (10) 1/h"

**Q:** Provide ka, population estimate (RSE%) value for the following compound: CC1OC(OC2C(OC3CCC4(C)C(=CCC5C4CCC4(C)C5CC5OC6(CCC(C)(COC7OC(CO)C(O)C(O)C7O)O6)C(C)C54)C3)OC(CO)C(OC3OC(CO)C(O)C(O)C3O)C2O)C(O)C(O)C1O (stereo not drawn) [AVE A, Avenacoside A]
**A:** 2.7 (8) 1/h

---

test: Plasma pharmacokinetics after a single dose of liquid or solid oat product (compartmental PK model); assay type: in vivo, humans; conditions: both sexes, oral, 196 mL of oat drink; liquid oat product (196 mL oat drink), single dose, human plasma, derived from PK model
measured_property: Tmax (h)

# example entries with known answers
compound="CC1OC(OC2C(OC3CCC4(C)C(=CCC5C4CCC4(C)C5CC5OC6(CCC(C)(COC7OC(CO)C(O)C(O)C7O)O6)C(C)C54)C3)OC(CO)C(OC3OC(CO)C(O)C(OC4OC(CO)C(O)C(O)C4O)C3O)C2O)C(O)C(O)C1O (stereo not shown) [AVE B, Avenacoside B]" measured_property=Tmax number=2.98
compound=COc1cc(/C=C/C(=O)Nc2ccc(O)cc2C(=O)O)ccc1O measured_property=Tmax number=0.98
compound=O=C(/C=C/c1ccc(O)c(O)c1)Nc1ccc(O)cc1C(=O)O measured_property=Tmax number=0.73
compound=O=C(/C=C/c1ccc(O)cc1)Nc1ccc(O)cc1C(=O)O measured_property=Tmax number=1.21
compound="CC1OC(OC2C(OC3CCC4(C)C(=CCC5C4CCC4(C)C5CC5OC6(CCC(C)(COC7OC(CO)C(O)C(O)C7O)O6)C(C)C54)C3)OC(CO)C(OC3OC(CO)C(O)C(O)C3O)C2O)C(O)C(O)C1O (stereo not shown) [AVE A, Avenacoside A]" measured_property=Tmax number=2.51

I: O=C(/C=C/C=C/c1ccc(O)cc1)Nc1ccc(O)cc1C(=O)O
II: COc1cc(/C=C/C=C/C(=O)Nc2ccc(O)cc2C(=O)O)ccc1O
**Q:** // which entry has the larger Tmax value, I or II ? Answer = label.
**A:** I
(I: 1.6 h, II: 1.01 h)

---

assay: Plasma pharmacokinetics after a single dose of liquid or solid oat product (compartmental PK model); format: in vivo, humans; conditions: both sexes, human, plasma, oral, 62 g of oat flakes; solid, single dose
measured_property: half-life (h)

compound="O=C(/C=C/c1ccc(O)c(O)c1)Nc1ccc(O)cc1C(=O)O [AVA 2c]" measured_property=half-life measurement_unit=h number=2.13

1: O=C(/C=C/c1ccc(O)cc1)Nc1ccc(O)cc1C(=O)O [AVA 2p]
2: O=C(/C=C/C=C/c1ccc(O)cc1)Nc1ccc(O)cc1C(=O)O [AVA 2pd]
**Q:** Among 1 and 2 , which shows a numerically higher half-life result? Which one? Tell me its label.
**A:** 2

---

assay: Plasma pharmacokinetics after a single dose of liquid or solid oat product (compartmental PK model); type: in vivo, humans; conditions: both sexes, human, plasma, oral, 62 g of oat flakes; solid, single dose
measured_property: Cmax (nM)

A: O=C(/C=C/C=C/c1ccc(O)cc1)Nc1ccc(O)cc1C(=O)O
B: COc1cc(/C=C/C(=O)Nc2ccc(O)cc2C(=O)O)ccc1O
**Q:** Would you mind telling me which has the lower recorded Cmax between A and B ? Answer = label.
**A:** B

A: O=C(/C=C/c1ccc(O)cc1)Nc1ccc(O)cc1C(=O)O
B: O=C(/C=C/c1ccc(O)c(O)c1)Nc1ccc(O)cc1C(=O)O
C: COc1cc(/C=C/C=C/C(=O)Nc2ccc(O)cc2C(=O)O)ccc1O
**Q:** Rank the 3 compounds: largest Cmax first, smallest last. Rank the items, then write their labels in that order.
**A:** A, C, B
(A: 20 nM, C: 7.34 nM, B: 4.91 nM)
